Origin of values: patent US20240360134A1

Test target: VEGFR2, unphosphorylated (Homo sapiens (Human))
Sequence (P35968 whole entry, looked up): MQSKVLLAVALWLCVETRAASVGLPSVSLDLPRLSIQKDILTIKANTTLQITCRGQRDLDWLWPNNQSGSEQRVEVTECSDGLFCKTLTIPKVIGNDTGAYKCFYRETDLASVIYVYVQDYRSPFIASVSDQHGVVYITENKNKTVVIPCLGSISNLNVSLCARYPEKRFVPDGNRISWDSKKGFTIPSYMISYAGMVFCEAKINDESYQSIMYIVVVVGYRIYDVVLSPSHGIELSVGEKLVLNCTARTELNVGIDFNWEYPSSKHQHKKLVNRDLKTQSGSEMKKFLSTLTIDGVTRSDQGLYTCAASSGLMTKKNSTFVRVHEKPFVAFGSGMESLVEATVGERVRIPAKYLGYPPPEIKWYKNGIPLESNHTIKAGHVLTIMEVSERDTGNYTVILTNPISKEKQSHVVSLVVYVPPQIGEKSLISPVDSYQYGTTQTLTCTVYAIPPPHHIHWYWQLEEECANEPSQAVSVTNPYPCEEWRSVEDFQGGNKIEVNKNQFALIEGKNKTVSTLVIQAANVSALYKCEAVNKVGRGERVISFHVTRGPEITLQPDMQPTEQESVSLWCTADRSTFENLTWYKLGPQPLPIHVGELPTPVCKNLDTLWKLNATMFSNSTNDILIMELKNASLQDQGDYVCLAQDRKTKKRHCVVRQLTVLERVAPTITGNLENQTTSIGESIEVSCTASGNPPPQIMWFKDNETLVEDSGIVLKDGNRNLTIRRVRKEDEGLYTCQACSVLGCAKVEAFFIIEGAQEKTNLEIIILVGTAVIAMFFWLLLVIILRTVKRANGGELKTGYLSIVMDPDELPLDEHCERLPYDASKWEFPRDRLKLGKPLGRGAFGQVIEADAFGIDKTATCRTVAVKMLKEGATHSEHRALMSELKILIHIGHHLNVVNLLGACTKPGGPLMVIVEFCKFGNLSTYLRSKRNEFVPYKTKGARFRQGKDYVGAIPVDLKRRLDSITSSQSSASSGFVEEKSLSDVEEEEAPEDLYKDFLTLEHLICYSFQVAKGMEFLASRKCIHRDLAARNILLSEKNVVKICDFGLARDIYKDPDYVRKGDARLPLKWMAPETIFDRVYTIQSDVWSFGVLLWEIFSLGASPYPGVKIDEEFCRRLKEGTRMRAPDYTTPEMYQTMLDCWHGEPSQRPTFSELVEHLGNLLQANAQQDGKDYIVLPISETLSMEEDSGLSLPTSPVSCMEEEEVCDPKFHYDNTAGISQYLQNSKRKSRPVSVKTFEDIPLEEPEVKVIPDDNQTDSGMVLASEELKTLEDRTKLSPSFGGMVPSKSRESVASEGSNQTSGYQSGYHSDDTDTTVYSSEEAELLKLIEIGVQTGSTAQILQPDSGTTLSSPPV
Test details: VEGFR ADP GLO assay
Cond: 5 nM VEGFR2, 1.2 mM ATP, 1 mg/mL Srctide, 180 min
# maps each entry to its IC50
Quantity name: IC50 (µM)

compound="Cc1ccc(C(=O)NCCN2CCC(F)(F)CC2)cc1Nc1nn(C)c2nc(Nc3cnn(C)c3)ncc12 [Example 118]" test_target="VEGFR2, unphosphorylated (Homo sapiens (Human))" quantity_name=IC50 inequality_sign== measurement=0.076
compound="Cc1ncc(C(=O)NCCN2C[C@H](C)O[C@@H](C)C2)cc1Nc1nn(C)c2nc(Nc3cnn(C)c3)ncc12 (relative stereo) [Example 92]" test_target="VEGFR2, unphosphorylated (Homo sapiens (Human))" quantity_name=IC50 inequality_sign== measurement=6.7
compound="Cc1ccc(C(=O)NCCN2CCC3(CC3)C2)cc1Nc1nn(C)c2nc(Nc3cnn(C)c3)ncc12 [Example 67]" test_target="VEGFR2, unphosphorylated (Homo sapiens (Human))" quantity_name=IC50 inequality_sign== measurement=1.66
compound="CO[C@@H]1CCN(CC(=O)Nc2cnc(C)c(Nc3nn(C)c4nc(Nc5cnn(C)c5)ncc34)c2)C1 [Example 135]" test_target="VEGFR2, unphosphorylated (Homo sapiens (Human))" quantity_name=IC50 inequality_sign=> measurement=7.5
compound="Cc1ncc(C(=O)NCCN2C3CCC2CC3)cc1Nc1nn(C)c2nc(Nc3cnn(C)c3)ncc12 [Example 153]" test_target="VEGFR2, unphosphorylated (Homo sapiens (Human))" quantity_name=IC50 inequality_sign=> measurement=7.5
compound="Cc1ncc(C(=O)NCCN2CCCC2(C)C)cc1Nc1nn(C)c2nc(Nc3ccc(=O)n(C)n3)ncc12 [Example 31]" test_target="VEGFR2, unphosphorylated (Homo sapiens (Human))" quantity_name=IC50 inequality_sign=> measurement=7.5
